# system.name: human P2X7 (Homo sapiens (Human), UniProt Q99572)
# Sequence (Q99572 whole entry): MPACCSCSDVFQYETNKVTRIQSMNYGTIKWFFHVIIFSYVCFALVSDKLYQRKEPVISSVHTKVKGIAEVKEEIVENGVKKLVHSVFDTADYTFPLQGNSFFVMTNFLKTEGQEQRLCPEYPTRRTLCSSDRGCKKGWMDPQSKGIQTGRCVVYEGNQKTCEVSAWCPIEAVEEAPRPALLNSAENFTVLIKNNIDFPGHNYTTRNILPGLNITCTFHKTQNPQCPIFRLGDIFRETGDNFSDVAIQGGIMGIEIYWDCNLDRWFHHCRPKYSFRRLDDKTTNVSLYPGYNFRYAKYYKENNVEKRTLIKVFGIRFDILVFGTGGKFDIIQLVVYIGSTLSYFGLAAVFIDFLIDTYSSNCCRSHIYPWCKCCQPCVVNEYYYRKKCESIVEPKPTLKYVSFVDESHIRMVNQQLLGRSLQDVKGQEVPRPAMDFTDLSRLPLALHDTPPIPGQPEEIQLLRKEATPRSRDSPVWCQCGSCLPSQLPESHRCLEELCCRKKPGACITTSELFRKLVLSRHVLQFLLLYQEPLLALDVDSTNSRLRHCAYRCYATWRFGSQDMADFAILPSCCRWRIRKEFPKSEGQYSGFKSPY
# assay.method.text: Human P2X7 functional assay (Ca2+ influx, Fluo-4, FDSS)
# test.conditions: antagonistic activity with respect to the human P2X7 receptor; BzATP final concentration 80 microM
# Description: The ability of the 5,6,7,8-tetrahydroquinoline and 6,7-dihydro-5H-cyclopenta[b]pyridine derivatives of the formula (I) to inhibit the P2X7 channel was measured by Ca^2+ influx assay and electrophysiology assay described below. Human P2X7 Functional Assay The functional activity of compounds was determined by measuring changes in intracellular calcium concentration using a Ca^2+-sensitive fluorescent dye, Fluo-4 (Molecular Probes). […]
pIC50: −log10 of the molar value.
value.type: pIC50

Completed entries (count: 8):
{"molecule": "O=C1CCC(C(=O)NCc2cccc(Cl)c2Cl)c2cccnc21 (stereo not shown)", "system.name": "human P2X7 (Homo sapiens (Human), UniProt Q99572)", "pIC50": "6.00 to 6.52"}
{"molecule": "O=C(NCc1ccc(F)c(F)c1Cl)[C@H]1CC[C@H](O)c2ncccc21", "system.name": "human P2X7 (Homo sapiens (Human), UniProt Q99572)", "pIC50": "> 7.30"}
{"molecule": "O=C(NCc1c(F)cc(Cl)cc1F)[C@]1(F)CC[C@@](O)(CO)c2ncccc21", "system.name": "human P2X7 (Homo sapiens (Human), UniProt Q99572)", "pIC50": "7.00 to 7.30"}
{"molecule": "O=C(NCc1ccccc1F)[C@]1(F)CC[C@H](O)c2ncccc21", "system.name": "human P2X7 (Homo sapiens (Human), UniProt Q99572)", "pIC50": "6.00 to 6.52"}
{"molecule": "O=C(NCc1ccc(OC(F)(F)F)cc1F)[C@]1(F)CC[C@H](O)c2ncccc21", "system.name": "human P2X7 (Homo sapiens (Human), UniProt Q99572)", "pIC50": "6.52 to 7.00"}
{"molecule": "Cc1cc(Cl)cc(Cl)c1CNC(=O)[C@H]1C[C@H](O)c2ncccc21", "system.name": "human P2X7 (Homo sapiens (Human), UniProt Q99572)", "pIC50": "6.52 to 7.00"}
{"molecule": "O=C(NCc1ccc(Cl)cc1)[C@]1(F)CC[C@H](O)c2ncccc21", "system.name": "human P2X7 (Homo sapiens (Human), UniProt Q99572)", "pIC50": "6.52 to 7.00"}
{"molecule": "C[C@@H](NC(=O)[C@@]1(F)CC[C@@H](O)c2ncccc21)c1ccc(Cl)cc1Cl", "system.name": "human P2X7 (Homo sapiens (Human), UniProt Q99572)", "pIC50": "7.00 to 7.30"}

The molecule identified as O=C(NCc1ccc(Cl)cc1Cl)[C@]1(F)CC[C@@H](O)c2ncccc21 registered its pIC50 at > 7.30

Please fill in: pIC50 reported for O=C(NCc1c(Cl)ccc(Cl)c1Cl)[C@@]1(F)CC[C@@H](O)c2ncccc21 = 6.52 to 7.00

Briefly, pIC50 measured for O=C(NCc1ccc(Cl)cc1Cl)[C@]1(F)CC[C@@](O)(CO)c2ncccc21 : > 7.30

Just so you know, measured pIC50 for O=C1COC[C@]2(CC[C@@](F)(C(=O)NCc3ccc(Cl)cc3Cl)c3cccnc32)N1 (relative stereo) came out at > 7.30

The molecule identified as O=C1NC[C@@]2(CC[C@@](F)(C(=O)NCc3ccc(Cl)cc3Cl)c3cccnc32)O1 registered its pIC50 at 7.00 to 7.30

Summary for this molecule, O=C(NCC(c1ccc(Cl)cc1)N1CCC(F)(F)CC1)[C@]1(F)CC[C@H](O)c2ncccc21 (stereo partly shown) : pIC50 is > 7.30

Value of pIC50 reported for the molecule COc1ccc(CNC(=O)[C@]2(F)CC[C@H](O)c3ncccc32)c(Cl)c1 is 6.52 to 7.00

# pIC50 of O=C(NCc1c(Cl)cc(Cl)cc1C(F)F)[C@]1(F)CC[C@H](O)c2ncccc21 = > 7.30

Record summary for O=C(NCCOc1cccc(C(F)(F)F)c1)[C@]1(F)CC[C@H](O)c2ncccc21 : reported pIC50 = 6.00 to 6.52

# pIC50 of O=C(NCc1cc(C(F)(F)F)ccc1Cl)[C@]1(F)CC[C@H](O)c2ncccc21 = 6.52 to 7.00

The molecule O=C(NCc1cccc(Cl)c1Cl)C1(F)CCC(O)c2ncccc21 (stereo not shown) showed pIC50 equal to > 7.30

Query C=C1CC(C(=O)NCc2c(C)cc(Cl)cc2Cl)c2cccnc21 (stereo not shown) yields pIC50 of > 7.30
